- Test system: HCC 2998
- measurement-protocol: NCI tumour cell line growth inhibition, 48 h
Activity calls are given as the source filed them. Cut-off read from the data, not from the text of the source: active = GI50 up to about 1.1 µM and inactive = higher.
metric-name: GI50

Under HCC 2998: GI50 value of O=C(OCC(Cl)(Cl)Cl)N1CC[C@@H](C2CCCCC2)C1 ?
18.6 µM (inactive)

Follow-up item: O=S1(=O)c2cnccc2N=C(NCc2cccc3ccccc23)N1c1ccccc1
38.4 µM (inactive)

Follow-up item: CCCCc1c2c(nc3c1CC/C(=C\c1ccc([N+](=O)[O-])cc1)C3=O)CCCC2
1.78 µM (inactive)

* * *

- Test system: UACC-62
- measurement-protocol: NCI tumour cell line growth inhibition, 48 h
Calls of active or inactive are those of the source. Cut-off read from the data, not from the text of the source: active = GI50 up to about 1.1 µM and inactive = higher.
Mark one answer only. Choices: y for active, n for inactive

Assay result, entry COc1cc2nc(-c3ccccc3)cc(O)c2cc1OC — outcome?
n

Follow-up item: O=c1c2ccccc2c2c3c1cccc3c1cccc3c(=O)c4ccccc4c2c31
n

Follow-up item: O=C(c1ccccc1)c1nc2c(Cl)ccc(Cl)c2cc1C(Br)Br
n

Follow-up item: CCC(=O)CCC1=Nc2nnc(CCCCc3nnc4n3C(=O)C(CCC(=O)CC)=N4)n2C1=O
n

Follow-up item: Cc1cc(C)c2nc3c(c(C(O)C4CCCCN4)c2c1)CC/C3=C\c1ccc(Cl)cc1 (stereo not drawn)
n

Follow-up item: Cc1ccc(C2=Nn3c(nc4sc5c(c4c3=O)CCCC5)SC2)cc1
n

Follow-up item: O=c1c2ccccc2nc(N/N=C/c2ccccc2O)n1-c1ccccc1
n

Follow-up item: N#Cc1ccc(N2CCOCC2)cc1
n

Follow-up item: COc1cc(C(=O)C/C(CCCC(=O)Nc2ccccc2[N+](=O)[O-])=N/NC(=O)c2cc3ccccc3cc2O)ccc1O
n

Follow-up item: CN(C)/C=N/c1cc(=O)n(C)c(=O)n1C
n

Follow-up item: COc1ccc(/N=c2/[nH]c(N)c(C(=O)c3ccc(OC)cc3)s2)cc1
y

Follow-up item: CC(C)(C)OC(=O)NC1CCC(C(C)(C)C)CC1 (stereo not drawn)
n

Follow-up item: CC(=O)Oc1c(-c2ccccc2)[nH]c2cc([N+](=O)[O-])c(/C(Cl)=C/c3ccccc3)cc12
n

Follow-up item: Cc1nc2c(sc(=S)n2-c2ccccc2)c2nc3ccccc3n12
n

Follow-up item: COc1ccc(C2=NC(C)(C)CO2)cc1
n

Follow-up item: C=CCC(SC)C1=C(C)C(=O)c2ccccc21 (stereo not drawn)
n

Follow-up item: CC/C=C1\N=C(c2ccc(Cl)cc2)OC1=O
n

Follow-up item: O=C(C(=O)c1cc(-c2ccccc2)nc2ccc3ccccc3c12)c1ccccc1
n

Follow-up item: Cc1ncc(-c2nnnn2-c2ccccc2)c(C(=O)O)n1
n

Follow-up item: [O-][S+]1[C@H](c2ccccc2)c2c(-c3ccccc3)sc(-c3ccccc3)c2[C@@H]1c1ccccc1 (stereo partly drawn)
n

Follow-up item: N/C(=N\c1ccc(Cl)cc1)NS(=O)(=O)c1cc(Cl)c(Oc2ccc([N+](=O)[O-])cc2Cl)c(Cl)c1
n

Follow-up item: CC(=O)OCC1OC(n2c(=S)n(-c3ccccc3)c(=O)c3cc(Br)ccc32)C(OC(C)=O)C1OC(C)=O (stereo not drawn)
n

Follow-up item: Fc1ccc(/N=N/N2CCCC2)cc1
n
